- Tested on: Aorta
- EXPERIMENT_DESCRIPTION: Nitric oxide radical scavenging activity in rat aortic strip assessed as inhibition of acetylcholine-induced vasorelaxation at 10 uM
- Format: functional, tissue-based
Where a SMILES comes first, the peptide text is derived from it. The star is where a group is joined. X2 = CC1(C)N(O)C(c2ccc(OCC(=O)*)cc2)=[N+]([O-])C1(C)C; X1 = CC1(C)N(O)C(c2ccc(OCCN*)cc2)=[N+]([O-])C1(C)C
PARAMETER_MEASURED: inhibition (%)
Answer format: numeric, % implied, no suffix.

Example cases with answers are listed next.
CC(C)(C)OC(=O)N[C@@H](CCCCNC(=O)COc1ccc(C2=[N+]([O-])C(C)(C)C(C)(C)N2O)cc1)C(=O)O: 72.7
CC(C)[C@H](NC(=O)[C@H](CC(=O)O)NC(=O)CNC(=O)[C@@H](N)CCCNC(=N)N)C(=O)O (H-RGDV-OH): 7.6
C[C@H](NC(=O)[C@@H]1CCCN1)C(=O)N[C@@H](CCCCNC(=O)COc1ccc(C2=[N+]([O-])C(C)(C)C(C)(C)N2O)cc1)C(=O)O: 73.9
C[C@H](NC(=O)[C@@H]1CCCN1)C(=O)N[C@@H](CCCCN)C(=O)O (H-Pro-Ala-Lys-OH): 6.1
CC1(C)N(O)C=[N+]([O-])C1(C)C: 8.6

Field request: inhibition | item: CC1(C)N(O)C(c2ccc(OCCNC(=O)C[C@H](N)C(=O)O)cc2)=[N+]([O-])C1(C)C
72.8

Another molecule to check: CC(C)[C@H](NC(=O)[C@H](CC(=O)O)NC(=O)CNC(=O)[C@@H](N)CCCNC(=N)NC(=O)COc1ccc(C2=[N+]([O-])C(C)(C)C(C)(C)N2O)cc1)C(=O)O (H-R(X2)GDV-OH)
72.8

Item: CC1(C)N(O)C(c2ccc(OCCNC(=O)C[C@H](NC(=O)CNC(=O)[C@@H](N)CCCNC(=N)N)C(=O)N[C@@H](CO)C(=O)O)cc2)=[N+]([O-])C1(C)C (H-RGD(X1)S-OH)
71.3

Record: CC1(C)N(O)C(c2ccc(OCC(=O)N[C@@H](CCCCN)C(=O)O)cc2)=[N+]([O-])C1(C)C
74

Now consider CC1(C)N(O)C(c2ccc(OCC(=O)NCCCC[C@H](N)C(=O)O)cc2)=[N+]([O-])C1(C)C .
72.3

Try this molecule next: CC1(C)N(O)C(c2ccc([N+](=O)[O-])cc2)=[N+]([O-])C1(C)C
71.3

Now the same for CC1(C)N(O)C(c2cccnc2)=[N+]([O-])C1(C)C
16.6

Repeat with CC(C)(C)OC(=O)N[C@@H](CCC(=O)NCCOc1ccc(C2=[N+]([O-])C(C)(C)C(C)(C)N2O)cc1)C(=O)O
72.4

Next: COC(=O)[C@@H](N)CC(=O)NCCOc1ccc(C2=[N+]([O-])C(C)(C)C(C)(C)N2O)cc1
76

// next record CC1(C)N(O)C(c2ccc(OCC(=O)N[C@@H](CCCNC(=N)N)C(=O)O)cc2)=[N+]([O-])C1(C)C
10.7
